molecular target: Zinc finger protein GLI1 (Mus musculus) (UniProt P47806); test: Inhibition of GLI1 transcriptional activity in HH-responsive mouse NIH3T3 cells assessed as reduction in GLI1 protein expression at 5 uM incubated for 48 hrs in presence of SAG by Western blot analysis; format: cell-based
Sequence (P47806 whole entry): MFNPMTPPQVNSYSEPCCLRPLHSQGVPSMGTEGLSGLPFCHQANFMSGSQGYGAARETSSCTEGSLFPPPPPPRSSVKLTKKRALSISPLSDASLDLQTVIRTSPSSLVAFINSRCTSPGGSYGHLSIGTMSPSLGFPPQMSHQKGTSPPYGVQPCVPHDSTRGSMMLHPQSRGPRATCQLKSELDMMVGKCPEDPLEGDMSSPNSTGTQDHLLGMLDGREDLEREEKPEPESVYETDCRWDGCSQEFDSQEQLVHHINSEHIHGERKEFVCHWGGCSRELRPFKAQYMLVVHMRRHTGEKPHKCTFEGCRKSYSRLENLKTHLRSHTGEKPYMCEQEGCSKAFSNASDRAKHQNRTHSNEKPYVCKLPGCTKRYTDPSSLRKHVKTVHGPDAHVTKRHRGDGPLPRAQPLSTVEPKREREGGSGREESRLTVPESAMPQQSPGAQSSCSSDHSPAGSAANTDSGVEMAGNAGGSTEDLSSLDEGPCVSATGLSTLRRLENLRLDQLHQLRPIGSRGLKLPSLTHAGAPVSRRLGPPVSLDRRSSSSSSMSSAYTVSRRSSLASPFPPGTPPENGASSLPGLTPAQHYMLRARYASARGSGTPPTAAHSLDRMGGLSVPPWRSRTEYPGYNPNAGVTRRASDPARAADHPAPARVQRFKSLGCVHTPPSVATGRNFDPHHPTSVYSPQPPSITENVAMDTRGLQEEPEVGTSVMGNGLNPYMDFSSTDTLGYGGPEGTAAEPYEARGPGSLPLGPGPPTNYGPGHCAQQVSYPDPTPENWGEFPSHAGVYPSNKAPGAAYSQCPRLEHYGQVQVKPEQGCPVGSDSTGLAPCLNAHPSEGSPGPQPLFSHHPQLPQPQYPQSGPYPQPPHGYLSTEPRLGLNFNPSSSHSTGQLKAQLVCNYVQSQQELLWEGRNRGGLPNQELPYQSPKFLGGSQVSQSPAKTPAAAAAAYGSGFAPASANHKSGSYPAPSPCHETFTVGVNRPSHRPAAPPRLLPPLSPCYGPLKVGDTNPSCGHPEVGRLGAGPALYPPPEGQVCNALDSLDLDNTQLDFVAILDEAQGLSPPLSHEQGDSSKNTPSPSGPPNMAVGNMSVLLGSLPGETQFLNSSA
The source made the active and inactive calls. The calls are words filed in the database; no cut-off is given here.
assay-metric: inhibition

Recorded inhibition, per entry:
compound | inhibition
CCOC(=O)c1c(-c2ccccc2)csc1NC(NC(=O)c1cccc(C)c1)C(Cl)(Cl)Cl (stereo not drawn) | inactive
O=C(NCCc1ccccc1)c1cnn2c(C(F)F)cc(C3CC3)nc12 | inactive
Cc1cc(C(F)F)n2ncc(C(=O)NC3CC(C)(C)Oc4ccccc43)c2n1 (stereo not drawn) | inactive
O=C(NC1CCOc2ccccc21)c1cnn2c(C(F)F)cc(C3CC3)nc12 (stereo not drawn) | inactive
CCOC(=O)c1c(-c2ccccc2)csc1NC(NC(=O)c1ccccc1C)C(Cl)(Cl)Cl (stereo not drawn) | inactive
CCOC(=O)c1c(-c2ccccc2)csc1NC(NC(=O)c1ccc(Br)cc1)C(Cl)(Cl)Cl (stereo not drawn) | Active
CCOC(=O)c1c(-c2ccccc2)csc1NC(NC(=O)CC)C(Cl)(Cl)Cl (stereo not drawn) | Active
CCOC(=O)c1c(-c2ccccc2)csc1NC(NC(=O)c1ccc(C)cc1)C(Cl)(Cl)Cl (stereo not drawn) | inactive

Read off the recorded inhibition for O=C(c1cnn2c(C(F)F)cc(C3CC3)nc12)N(Cc1ccccc1)Cc1ccccc1
inactive

# return recorded inhibition for input CCOC(=O)c1c(-c2ccccc2)csc1NC(NC(=O)c1cccc2ccccc12)C(Cl)(Cl)Cl (stereo not drawn)
inactive

Return value of inhibition for input O=C(NC1CCCCC1)c1cnn2c(C(F)F)cc(C3CC3)nc12 , no commentary.
inactive

Tell me measured inhibition for O=C(NCc1ccc2c(c1)OCO2)c1cnn2c(C(F)F)cc(C3CC3)nc12 please.
inactive

Look up and state reported inhibition for CCOC(=O)c1c(-c2ccccc2)csc1NC(NC(=O)c1ccccc1)C(Cl)(Cl)Cl (stereo not drawn)
Active

Using known records, supply inhibition for O=C(NC1CCCc2ccccc21)c1cnn2c(C(F)(F)F)cc(-c3cccs3)nc12 (stereo not drawn)
Active

Quickly give me recorded inhibition for CC1(C)CC(NC(=O)c2cnn3c(C(F)F)cc(C4CC4)nc23)c2ccccc2O1 (stereo not drawn)
Active

Find the measured inhibition of O=C(NC1CCCc2ccccc21)c1cnn2c(C(F)(F)F)cc(-c3ccco3)nc12 (stereo not drawn) and report it.
Active

Please list inhibition recorded for the compound CCOC(=O)c1c(-c2ccccc2)csc1NC(NC(C)=O)C(Cl)(Cl)Cl (stereo not drawn)
inactive

Return value of inhibition for input CCOC(=O)c1c(-c2ccccc2)csc1NC(NC(=O)c1ccco1)C(Cl)(Cl)Cl (stereo not drawn) , no commentary.
Active

Kindly indicate its recorded inhibition. Item: COc1c(O)cc2oc3cc(O)c(CC=C(C)C)c(O)c3c(=O)c2c1CC=C(C)C [MANGOSTIN]
Active

====

target: Zinc finger protein GLI1 (Homo sapiens) (UniProt P08151); test: Inhibition of GLI1 transcriptional activity in human A375 cells assessed as downregulation of HIP1 mRNA expression at 5 uM incubated for 48 hrs by qPCR analysis; type: cell-based; settings: A-375
Sequence (P08151 whole entry): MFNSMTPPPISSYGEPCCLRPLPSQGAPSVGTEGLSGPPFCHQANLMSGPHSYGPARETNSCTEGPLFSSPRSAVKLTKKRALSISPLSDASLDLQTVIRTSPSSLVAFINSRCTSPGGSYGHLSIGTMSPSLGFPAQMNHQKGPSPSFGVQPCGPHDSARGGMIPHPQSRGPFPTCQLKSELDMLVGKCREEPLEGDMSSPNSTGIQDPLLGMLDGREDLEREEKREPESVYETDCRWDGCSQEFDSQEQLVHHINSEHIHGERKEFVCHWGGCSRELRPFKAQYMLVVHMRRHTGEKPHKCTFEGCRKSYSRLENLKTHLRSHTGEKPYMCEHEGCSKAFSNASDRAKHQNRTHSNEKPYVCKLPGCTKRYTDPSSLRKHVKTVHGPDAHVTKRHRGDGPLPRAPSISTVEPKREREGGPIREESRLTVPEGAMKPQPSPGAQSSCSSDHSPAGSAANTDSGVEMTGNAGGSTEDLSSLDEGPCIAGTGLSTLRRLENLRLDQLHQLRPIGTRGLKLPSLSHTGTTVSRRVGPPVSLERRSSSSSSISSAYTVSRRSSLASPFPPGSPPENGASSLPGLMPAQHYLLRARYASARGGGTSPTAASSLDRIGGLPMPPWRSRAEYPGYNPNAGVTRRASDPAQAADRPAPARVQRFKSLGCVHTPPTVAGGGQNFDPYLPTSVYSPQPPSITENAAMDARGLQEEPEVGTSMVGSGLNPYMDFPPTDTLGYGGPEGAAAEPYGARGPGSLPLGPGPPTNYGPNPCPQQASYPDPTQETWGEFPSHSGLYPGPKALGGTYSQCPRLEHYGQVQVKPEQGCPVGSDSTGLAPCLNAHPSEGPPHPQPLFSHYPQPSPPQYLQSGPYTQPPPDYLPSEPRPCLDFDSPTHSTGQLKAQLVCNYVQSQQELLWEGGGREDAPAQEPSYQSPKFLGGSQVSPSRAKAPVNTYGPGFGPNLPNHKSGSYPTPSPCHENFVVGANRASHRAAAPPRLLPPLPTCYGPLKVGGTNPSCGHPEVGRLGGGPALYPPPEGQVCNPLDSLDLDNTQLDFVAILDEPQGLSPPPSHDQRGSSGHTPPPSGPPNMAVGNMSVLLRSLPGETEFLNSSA
Calls of active or inactive are those of the source. The rule behind the calls is not given here.
assay-metric: inhibition

Examples from the recorded data:
compound | reported
CC1(C)CC(NC(=O)c2cnn3c(C(F)F)cc(C4CC4)nc23)c2ccccc2O1 (stereo not given) | Active
COc1cc(OC)c2c(=O)c(-c3ccc(OCC=C(C)C)c(OCC=C(C)C)c3)coc2c1 | Active
O=C(NC1CCCc2ccccc21)c1cnn2c(C(F)(F)F)cc(-c3cccs3)nc12 (stereo not given) | Active
CCOC(=O)c1c(-c2ccccc2)csc1NC(NC(=O)CC)C(Cl)(Cl)Cl (stereo not given) | Active

Pending compound:
Indicate the recorded inhibition value for this compound: CCOC(=O)c1c(-c2ccccc2)csc1NC(NC(=O)c1ccccc1)C(Cl)(Cl)Cl (stereo not given)
Active
